tested on: RAW-Dual; experiment: IRF Lucia reporter activity, fold change vs agonist alone; cytotoxicity flag (confluency mask): not cytotoxic; higher = enhanced IRF activity; settings: agonist: LPS (TLR4) 0.1 ug/mL
Over roughly 2,900 compounds, “IRF Lucia reporter activity, fold change vs agonist alone” has its median near 0.9; the highest 2% begin near 2.8. The full list was thinned out, with the highest values kept by preference.
assay_metric: IRF Lucia reporter activity
// response body must contain only the number

Some compounds with recorded IRF Lucia reporter activity:
compound	system_tested	IRF Lucia reporter activity
CN1c2ccccc2C(=O)Nc2cnc(Nc3ccc(N4CCC(O)CC4)cc3)nc21 (library stock concentration (final ~1000-fold dilution): 10 mM)	RAW-Dual	0.438
CCn1c(=O)c(-c2cc(NC(=O)Nc3ccccc3)c(F)cc2Br)cc2cnc(NC)cc21 (library stock concentration (final ~1000-fold dilution): 10 mM)	RAW-Dual	0.268

Attention now turns to another entry.
Item O=c1cc(-c2ccccc2)oc2cc(OC3OC(CO)C(O)C(O)C3O)c(O)c(O)c12 (stereo not drawn) (library stock concentration (final ~1000-fold dilution): 10 mM) with RAW-Dual - IRF Lucia reporter activity?
0.849

---

system: RAW-Dual; assay: IRF Lucia reporter activity, fold change vs agonist alone; cytotoxicity flag (confluency mask): not cytotoxic; higher = enhanced IRF activity; conditions: agonist: LPS (TLR4) 0.1 ug/mL
The full ranking holds about 2,900 compounds; the median of “IRF Lucia reporter activity, fold change vs agonist alone” is about 0.9, and the highest 2% start at about 2.8. Shown is part of a subset that was picked to be rich in the highest values.
Entry flag: fulfilled if IRF Lucia reporter activity reaches 0.9; not fulfilled if it does not.

Some solved entries appear below for comparison.
compound	class
CCC(NC(=O)C(C)NC)C(=O)N1CC(O)CC1Cc1c(-c2[nH]c3cc(F)ccc3c2CC2CC(O)CN2C(=O)C(CC)NC(=O)C(C)NC)[nH]c2cc(F)ccc12 (stereo unspecified) (library stock concentration (final ~1000-fold dilution): 10 mM)	not fulfilled
Cc1ccc(/C(=C\CN2CCCC2)c2ccccn2)cc1.Cl.O (library stock concentration (final ~1000-fold dilution): 10 mM)	not fulfilled
CC1CC(C(=O)O)C2CCC3(C)C(=CCC4C5(C)CCC(O)C(C)(C)C5CCC43C)C2C1C (stereo unspecified) (library stock concentration (final ~1000-fold dilution): 10 mM)	fulfilled
CC(C)(O)CNc1ncc(-c2ccnc(Nc3ccncc3)n2)c(CC2CC2)n1 (library stock concentration (final ~1000-fold dilution): 10 mM)	fulfilled
C/C(O)=C(\C#N)C(=O)Nc1ccc(C(F)(F)F)cc1 (library stock concentration (final ~1000-fold dilution): 10 mM)	fulfilled

Attention now shifts to the item below.
// inclusive: IRF Lucia reporter activity at least 0.9? input: COc1cc2c(cc1OC(C)C)C(c1ccc(Cl)cc1)N(c1ccc(N(C)CC3CCC(N4CCN(C)C(=O)C4)CC3)cc1)C(=O)C2 (stereo unspecified) (library stock concentration (final ~1000-fold dilution): 10 mM)
fulfilled

---

test system: RAW-Dual; assay: IRF Lucia reporter activity, fold change vs agonist alone; higher = enhanced IRF activity; settings: library stock concentration (final ~1000-fold dilution): 10 mM; cytotoxicity flag (confluency mask): not cytotoxic; agonist: MPLA (TLR4) […]
In all, about 2,900 compounds were measured (“IRF Lucia reporter activity, fold change vs agonist alone”: median about 0.9, highest 2% from about 2.8 on). The sample holds the highest values, similar compounds and a random draw of the others, so the mix is not that of the screen.
assay_metric: IRF Lucia reporter activity
// response body must contain only the number

Some compounds with recorded IRF Lucia reporter activity:
> print(dat)
                                   compound  system.tested  number
1  CCC(C)Nc1cc(C(=O)NC2CC3CCC(C2)N3c2ccc(C(=O)C3CC3)cn2)c(C)cc1C(N)=O (stereo unspecified)       RAW-Dual   0.838
2  NC(=O)C(CCC(F)(F)F)N(Cc1ccc(-c2ncon2)cc1F)S(=O)(=O)c1ccc(Cl)cc1 (stereo unspecified)       RAW-Dual     1.3
3  COc1ncc(-c2ccc3nccc(-c4ccnnc4)c3c2)cc1NS(=O)(=O)c1ccc(F)cc1F       RAW-Dual    1.11
4    C/C(O)=C(\C#N)C(=O)Nc1ccc(C(F)(F)F)cc1       RAW-Dual    1.97
5  O=C(O)c1cc(I)ccc1NC(=O)C(Cc1ccccc1)NCc1ccccc1 (stereo unspecified)       RAW-Dual    1.05

So what's the measured IRF Lucia reporter activity for this one? CC(=O)Oc1cc(C(F)(F)F)ccc1C(=O)O
1.04

---

tested on: RAW-Dual; experiment: IRF Lucia reporter activity, fold change vs agonist alone; higher = enhanced IRF activity; conditions: library stock concentration (final ~1000-fold dilution): 10 mM; cytotoxicity flag (confluency mask): not cytotoxic; agonist: MPLA (TLR4) […]
Whole data set: some 2,900 compounds, median “IRF Lucia reporter activity, fold change vs agonist alone” near 0.9, cut for the highest 2% near 2.8. The full list was thinned out, with the highest values kept by preference.
Reported IRF Lucia reporter activity values follow for various compounds

Some compounds with recorded IRF Lucia reporter activity:
> print(dat)
                                   compound  result
1  C[N+]1(C)C2CCC1CC(OC(=O)C(O)c1ccccc1)C2 (stereo not drawn)   0.953
2  CC(C)c1nc(CN(C)C(=O)NC(C(=O)NC(Cc2ccccc2)CC(O)C(Cc2ccccc2)NC(=O)OCc2cncs2)C(C)C)cs1 (stereo not drawn)    1.07

Attention now turns to another entry.
So what's the measured IRF Lucia reporter activity for this one? Cc1cc2c(F)c(Oc3ncnn4cc(OCC(C)O)c(C)c34)ccc2[nH]1 (stereo not drawn)
1.93

---

tested on: RAW-Dual; assay: IRF Lucia reporter activity, fold change vs agonist alone; cytotoxicity flag (confluency mask): not cytotoxic; higher = enhanced IRF activity; settings: agonist: 3'3'-cGAMP (STING) 10 ug/mL
The full ranking holds about 2,900 compounds; the median of “IRF Lucia reporter activity, fold change vs agonist alone” is about 0.9, and the highest 2% start at about 2.8. The list comes from a sample in which the highest values are over-represented; it also holds close analogues and randomly drawn compounds.
Reported IRF Lucia reporter activity values follow for various molecules
// response body must contain only the number

Some molecules with recorded IRF Lucia reporter activity:
molecule	system_tested	IRF Lucia reporter activity
COCCOc1nc(N)c2[nH]c(=O)n(Cc3ccc(C(=O)O)cc3)c2n1 (library stock concentration (final ~1000-fold dilution): 10 mM)	RAW-Dual	1.54
CC(O)CO.CCOc1ccc(Cc2cc(C3OC(CO)C(O)C(O)C3O)ccc2Cl)cc1.O (centres undefined) (library stock concentration (final ~1000-fold dilution): 10 mM)	RAW-Dual	1.07
CC(C)OC(=O)C(C)NP(=O)(OCC1OC(n2ccc(=O)[nH]c2=O)C(C)(F)C1O)Oc1ccccc1 (centres undefined) (library stock concentration (final ~1000-fold dilution): 10 mM)	RAW-Dual	1.04

Attention now turns to another entry.
Item CCC1(O)CC2CN(CCc3c([nH]c4ccccc34)C(C(=O)OC)(c3cc4c(cc3OC)N(C=O)C3C(O)(C(=O)OC)C(OC(C)=O)C5(CC)C=CCN6CCC43C65)C2)C1.O=S(=O)(O)O (centres undefined) (library stock concentration (final ~1000-fold dilution): 10 mM) with RAW-Dual - IRF Lucia reporter activity?
0.107

---

Reported IRF Lucia reporter activity values follow for various molecules
test system: RAW-Dual; test: IRF Lucia reporter activity, fold change vs agonist alone; cytotoxicity flag (confluency mask): not cytotoxic; higher = enhanced IRF activity; conditions: agonist: LPS (TLR4) 0.1 ug/mL
In all, about 2,900 compounds were measured (“IRF Lucia reporter activity, fold change vs agonist alone”: median about 0.9, highest 2% from about 2.8 on). The sample as a whole holds a higher share of the highest values than the screen did.
// response body must contain only the number

Some molecules with recorded IRF Lucia reporter activity:
molecule	number
CCCS(=O)(=O)Nc1ccc(F)c(C(=O)c2c[nH]c3ncc(-c4ccc(Cl)cc4)cc23)c1F (library stock concentration (final ~1000-fold dilution): 10 mM)	0.356
Nc1nc2cc(-c3ccc4ncc(C(=O)N5CCOCC5)n4c3)ccc2o1 (library stock concentration (final ~1000-fold dilution): 10 mM)	1.04
COc1ccc2cc(-c3[nH]c(-c4ccc(S(C)=O)cc4)nc3-c3ccncc3)ccc2c1 (stereo not given) (library stock concentration (final ~1000-fold dilution): 10 mM)	0.466

So what's the measured IRF Lucia reporter activity for this one? O=c1cc(N2CCOCC2)oc2c(-c3cccc4c3sc3ccccc34)cccc12 (library stock concentration (final ~1000-fold dilution): 2 mM)
7.23

So what's the measured IRF Lucia reporter activity for this one? CCCc1cc(C)[nH]c(=O)c1CNC(=O)c1cc(-c2ccc(N3CCN(C)CC3)nc2)nc2c1cnn2C(C)C (library stock concentration (final ~1000-fold dilution): 10 mM)
1.35

---

Reported IRF Lucia reporter activity values follow for various compounds
system: RAW-Dual; test: IRF Lucia reporter activity, fold change vs agonist alone; cytotoxicity flag (confluency mask): not cytotoxic; higher = enhanced IRF activity; settings: agonist: LPS (TLR4) 0.1 ug/mL
Over roughly 2,900 compounds, “IRF Lucia reporter activity, fold change vs agonist alone” has its median near 0.9; the highest 2% begin near 2.8. For the sample, the highest values were picked, then their nearest neighbours and some compounds at random.
// response body must contain only the number

compound	number
CC(C)(O)CNc1ncc(-c2ccnc(Nc3ccnc(Cl)c3)n2)c(CC2CC2)n1 (library stock concentration (final ~1000-fold dilution): 10 mM)	3.2

So what's the measured IRF Lucia reporter activity for this one? Cc1ccc2c(=O)c3cccc(CC(=O)O)c3oc2c1C (library stock concentration (final ~1000-fold dilution): 10 mM)
6.08

So what's the measured IRF Lucia reporter activity for this one? Cc1nc(N)sc1-c1ccnc(Nc2ccc(N3CCOCC3)cc2)n1 (library stock concentration (final ~1000-fold dilution): 10 mM)
0.023

So what's the measured IRF Lucia reporter activity for this one? Cc1oncc1C(=O)Nc1ccc(C(F)(F)F)cc1 (library stock concentration (final ~1000-fold dilution): 10 mM)
1.39

So what's the measured IRF Lucia reporter activity for this one? CC1CNc2c(cccc2S(=O)(=O)NC(CCCNC(=N)N)C(=O)N2CCC(C)CC2C(=O)O)C1 (stereo not given) (library stock concentration (final ~1000-fold dilution): 10 mM)
0.919
